tested.target: T1, Human CD137 ECD (human)
T1 construct: also called 4-1BB
T1 sequence (chain, as listed by the source limits assumed): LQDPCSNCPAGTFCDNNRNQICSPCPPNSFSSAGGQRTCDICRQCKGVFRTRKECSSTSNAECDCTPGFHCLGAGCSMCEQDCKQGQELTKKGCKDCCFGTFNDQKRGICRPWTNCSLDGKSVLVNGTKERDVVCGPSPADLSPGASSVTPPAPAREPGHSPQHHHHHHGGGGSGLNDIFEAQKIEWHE
assay.info: single mutant vs template dBBDu183H
quantity.kind: fold change of affinity (fold)
Numbers only, in fold.

Worked examples follow.
| binder | fold change of affinity (fold) |
| --- | --- |
| H183/L072 VH A57S (antibody, name in Kabat numbering, V domains shown) VH: QVQLVESGGGLVQPGRSLRLSCAASGFTFSNAWMHWVRQAPGKGLEWVAQIKDKGNAYASYYAPSVKGRFTISRDDSKNSIYLQMNSLKTEDTAVYYCHYVHYASASTVLPAFGVDAWGQGTTVTVSS VL: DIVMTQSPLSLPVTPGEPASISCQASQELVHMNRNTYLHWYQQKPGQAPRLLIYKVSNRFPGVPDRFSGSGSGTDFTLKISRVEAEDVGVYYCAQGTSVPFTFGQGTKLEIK | 0.8 |
| H183/L072 VH S30I (antibody, name in Kabat numbering, V domains shown) VH: QVQLVESGGGLVQPGRSLRLSCAASGFTFINAWMHWVRQAPGKGLEWVAQIKDKGNAYAAYYAPSVKGRFTISRDDSKNSIYLQMNSLKTEDTAVYYCHYVHYASASTVLPAFGVDAWGQGTTVTVSS VL: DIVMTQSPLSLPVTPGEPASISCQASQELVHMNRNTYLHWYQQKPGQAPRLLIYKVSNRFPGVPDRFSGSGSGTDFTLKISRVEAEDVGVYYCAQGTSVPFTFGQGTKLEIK | 0.6 |

Qu. Quickly give me recorded fold change of affinity for H183/L072 VH G26T (antibody, name in Kabat numbering, V domains shown) VH: QVQLVESGGGLVQPGRSLRLSCAASTFTFSNAWMHWVRQAPGKGLEWVAQIKDKGNAYAAYYAPSVKGRFTISRDDSKNSIYLQMNSLKTEDTAVYYCHYVHYASASTVLPAFGVDAWGQGTTVTVSS VL: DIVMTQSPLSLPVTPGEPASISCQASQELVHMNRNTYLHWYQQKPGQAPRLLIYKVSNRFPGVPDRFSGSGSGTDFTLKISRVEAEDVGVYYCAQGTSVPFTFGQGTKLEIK
Ans. 0.5

Taken from patent US20210388087A1.
